- Tested on: biotinyl-Met-oxazolone
- ASSAY NOTES: self-aminoacylation, catalytic enhancement (BMO) (fold over background); higher = more active; k-Seq, kA / k0A0; sequences stand for … in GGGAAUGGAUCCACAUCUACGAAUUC…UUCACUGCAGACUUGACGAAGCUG
Variants at the floor of the assay were thinned out.
Please respond with reported self-aminoacylation for every item in the list.
One number for each entry.

Give me self-aminoacylation for each of these sequences, listed below.
1. AAGUAUGCUAAUAGCCGCAAG [Fam3.1 aminoacylation ribozyme variant]
2. AUACGCCUAGGUCAUCGGGUG [Fam2.2 aminoacylation ribozyme variant]
3. CCACACUACAAGCGAUCGGUC [Fam1B.1 aminoacylation ribozyme variant]
4. AUUACCCUUGUCAUCGAGUGG [Fam2.1 aminoacylation ribozyme variant]

[1.06, 7.57, 0.977, 2.03]

Give me self-aminoacylation for each of these sequences, listed below.
1. CCACACUUCAAGCAAUCGGGU [Fam1B.1 aminoacylation ribozyme variant]
2. AUUCACCUAGGUCCUUGGGUG [Fam2.2 aminoacylation ribozyme variant]

1. 1.41
2. 4.11
